Target: Angiogenin (UniProt P03950)
Sequence (P03950 25-147): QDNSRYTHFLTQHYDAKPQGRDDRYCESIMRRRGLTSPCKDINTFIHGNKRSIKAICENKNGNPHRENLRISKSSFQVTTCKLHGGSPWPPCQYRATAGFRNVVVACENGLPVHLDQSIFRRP
Test: filter
Conditions: 5-BrdU replaces T; apparent photocrosslink KD; plateau 23%; rate 1.46
quantity name: Kd (nM)

biopolymer sequence: ATATATATGGGAGGACGATGCGGGCCAACCACGTGGTATTATTGACCTTGCAATGGGAATGCCCAGACGACGAGCGGGAAAAAAAA [Angiogenin pool 011 clone 11]
units label: nM
endpoint result: 1.1

====

Biological target: beta-Nerve Growth Factor (beta-NGF)
Assay: filter
Conditions: 5-BrdU replaces T; apparent photocrosslink KD; plateau 47%; rate 0.94

biopolymer sequence: ATATATATGGGAGGACGATGCGGGCACTAACTTTACCTCCACCTCTAACCACCCTCCTTTCTGCAGACGACGAGCGGGAAAAAAAA [beta-NGF pool 031 clone 65]
measured target: beta-Nerve Growth Factor (beta-NGF)
Kd / nM: 0.2

====

Target: Transforming Growth Factor beta1 (TGF-beta1) (UniProt P01137)
Sequence (P01137 279-390): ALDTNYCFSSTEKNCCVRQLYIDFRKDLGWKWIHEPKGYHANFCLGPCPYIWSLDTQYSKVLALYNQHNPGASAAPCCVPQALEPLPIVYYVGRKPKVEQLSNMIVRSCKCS
Assay: filter
Conditions: 5-BrdU replaces T; apparent photocrosslink KD; plateau 79%; rate 0.34

biopolymer sequence: ATATATATGGGAGGACGATGCGGGCACAACCTTACCACCCTAGCCTACCCCTAACCTCCTGTCCAGACGACGAGCGGGAAAAAAAA [TGF-beta1 pool 015 clone 74]
measured target: Transforming Growth Factor beta1 (TGF-beta1) (UniProt P01137)
Kd: 4.9 nM

====

Molecular target: Transforming Growth Factor beta1 (TGF-beta1) (UniProt P01137)
Experiment: filter
Conditions: 5-BrdU replaces T; apparent photocrosslink KD; plateau 80%; rate 0.5
quantity name: Kd (nM)

biopolymer sequence: ATATATATGGGAGGACGATGCGGGCACAATCAAGACCTCTCCAAACTTGAACTCTGTCTATCCCAGACGACGAGCGGGAAAAAAAA [TGF-beta1 pool 015 clone 87]
quantity name: Kd
endpoint result: 62

====

Molecular target: Interleukin-4 (UniProt P05112)
Sequence: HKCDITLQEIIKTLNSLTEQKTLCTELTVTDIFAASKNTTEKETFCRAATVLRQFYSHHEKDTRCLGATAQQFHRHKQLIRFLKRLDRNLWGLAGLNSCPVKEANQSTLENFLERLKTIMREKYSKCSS
Assay: filter
Conditions: 5-BrdU replaces T; apparent photocrosslink KD; plateau 49%; rate 0.98

biopolymer sequence: ATATATATGGGAGGACGATGCGGGCCTACCAACTCCCCTCTAGTCCTGTTCTATCCACGTTGGCAGACGACGAGCGGGAAAAAAAA [IL-4 pool 012 clone 31]
Kd / nM: 21

====

Target: Interleukin-4 (UniProt P05112)
Sequence: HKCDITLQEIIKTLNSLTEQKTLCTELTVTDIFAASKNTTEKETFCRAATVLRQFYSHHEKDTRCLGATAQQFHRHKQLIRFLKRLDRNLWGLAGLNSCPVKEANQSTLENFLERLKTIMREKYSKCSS
Assay: filter
Conditions: 5-BrdU replaces T; apparent photocrosslink KD; plateau 40%; rate 1.8

biopolymer sequence: ATATATATGGGAGGACGATGCGGGCCGAAGTCTAAACCTGCTCGTGACTTTCTTTCGATGTTGCAGACGACGAGCGGGAAAAAAAA [IL-4 pool 012 clone 8]
measured target: Interleukin-4 (UniProt P05112)
units label: nM
Kd: 39

====

Biological target: Transforming Growth Factor beta1 (TGF-beta1)
Experiment: filter
Conditions: 5-BrdU replaces T; apparent photocrosslink KD; plateau 100%; rate 0.54

biopolymer sequence: ATATATATGGGAGGACGATGCGGGCAGCAACCTACCTTACCTTCCCCTAGCCTACCTTATCCCCAGACGACGAGCGGGAAAAAAAA [TGF-beta1 pool 015 clone 82]
Kd: 7.1 nM
